assay_endpoint: melting point

mol | melting point
Cc1nc(CCc2cc(-c3ccc(C(F)(F)F)cc3)oc2C)sc1CC(=O)O | 168 to 169 °C
Cc1oc(-c2cccc(F)c2)cc1COc1cccc(CSC(C)(C)C(=O)O)c1 | 116 to 117 °C
Cc1oc(-c2ccc(C(F)(F)F)cc2)cc1CCCOc1cccc(CC(=O)O)c1 | 111 to 113 °C
Cc1oc(-c2ccc(C(F)(F)F)cc2)cc1COc1cc(CSC(C)(C)C(=O)O)ccc1Cl | 140 to 142 °C
CCc1oc(-c2ccc(C(F)(F)F)cc2)cc1CCCOc1ccc2sc(CC(=O)O)cc2c1 | 111 to 112 °C
Cc1cc(OCc2cc(-c3ccc(C(F)(F)F)cc3)oc2C)ccc1CCC(=O)O | 140 to 141 °C
COc1ccc(CCC(=O)O)cc1OCc1cc(-c2ccc(C(F)(F)F)cc2)oc1C | 128 to 129 °C
Cc1oc(-c2ccc(F)cc2)cc1COc1cccc(CSCC(=O)O)c1 | 120 to 122 °C
Cc1oc(-c2ccc(C(F)(F)F)cc2)cc1CCc1nc(C(C)C)c(CC(=O)O)s1 | 176 to 177 °C
Cc1oc(-c2ccc(F)cc2)cc1C(=O)N(C)c1cccc(CSCC(=O)O)c1 | 155 to 156 °C

Next, consider the following compound.
Entry Cc1nc(CCCc2cc(-c3ccc(C(F)(F)F)cc3)oc2C)sc1CC(=O)O — recorded melting point = 162 to 163 °C
